Provide the recorded TGI for the entries that follow.
tested on: HL-60(TB) leukemia; assay: NCI tumour cell line growth inhibition, 48 h
Numbers only; they are read as µM.

Print HL-60(TB) leukemia TGI for Oc1cccc(-c2nc(-c3ccccc3)[nH]c2-c2ccncc2)c1 . 19.4

Print HL-60(TB) leukemia TGI for COc1c(C)c(O)c2c(c1C)OC(c1ccccc1)CC2=O (centres undefined) . 90.5

Print HL-60(TB) leukemia TGI for CCOC(=O)C(NC(=O)c1cccc(Cl)c1)(N1CCN(c2cc3c(cc2F)c(=O)c(C(=O)O)cn3C2CC2)CC1)C(F)(F)F (centres undefined) . 6.64

Print HL-60(TB) leukemia TGI for CC1(C=O)CCC23COC4(CCC5C6(C)CCC(OC7OCC(OC8OC(CO)C(O)C(OC9OC(CO)C(O)C(O)C9O)C8OC8OCC(O)C(O)C8O)C(O)C7OC7OC(CO)C(O)C(O)C7O)C(C)(C)C6CCC5(C)C4(C)CC2O)C3C1 (centres undefined) . 1.41

====

test system: HCT-15 colon; assay: NCI tumour cell line growth inhibition, 48 h
*1 amine or outer side, *2 acyl side, *3 side chain or, on linkers, in order; H or OH if unused. Where a SMILES comes first, the peptide text is derived from it. [ ]: non-standard residue; d: D form. The star is where a group is joined. ξ: configuration not given here. γGlu = O=C(O)[CH](CCC(=O)[*:2])N[*:1]; X22 = O=C(C(CC(O)CO)O[*:1])[*:2]; Ile(3ξ) = CCC(C)[C@H](N)C(=O)O; NMeV = CN[C@H](C(=O)O)C(C)C; NMeA = CN[C@@H](C)C(=O)O; βAla = NCCC(=O)O; NHOH = ON*
measured.endpoint: TGI

Print HCT-15 colon TGI for COc1c(C)c(O)c2c(c1C)OC(c1ccccc1)CC2=O (centres undefined) . > 100 µM

Print HCT-15 colon TGI for COC(CC1(OC)OC(=O)C=C1N)OC (centres undefined) . > 100 µM

Print HCT-15 colon TGI for c1ccc([P+](c2ccccc2)(c2ccccc2)c2ccc(-c3ccc([P+](c4ccccc4)(c4ccccc4)c4ccccc4)cc3)cc2)cc1 . > 100 µM

Print HCT-15 colon TGI for Clc1ccc(-c2nc3ccc4ccccc4c3c3c2CCCC3)cc1 . > 100 µM

Print HCT-15 colon TGI for N#Cc1c(N)c(C#N)c2c(c1-c1ccc(Cl)cc1)COc1ccc(F)cc1-2 . > 50 µM

Print HCT-15 colon TGI for N#C/C(C(=O)Nc1ccc(Cl)cc1)=C(/N)N1CCOCC1 . > 100 µM

Print HCT-15 colon TGI for O=C1OCCC[C@H]2O[C@@H](COCc3ccccc3)C[C@@H]12 . > 100 µM

Print HCT-15 colon TGI for N#CC1=C(N)OC(c2cccc([N+](=O)[O-])c2)C1(C#N)C#N (centres undefined) . 34.3 µM

Print HCT-15 colon TGI for Cc1c(N=Nc2ccc(Cl)cc2)c(C)n(C2OC(CO)C(O)C(O)C2O)c(=S)c1C#N (centres undefined) . 60.8 µM

Print HCT-15 colon TGI for O=c1c2cc(S(=O)(=O)Nc3ccc(Cl)cc3Cl)ccc2ncn1NS(=O)(=O)c1cccc2ccccc12 . > 100 µM

Print HCT-15 colon TGI for N#CC1CCCCC1NC1(C#N)CCCCC1 (centres undefined) . > 100 µM

Print HCT-15 colon TGI for CC(C)[C@H](C(=O)O[C@@H]1/C=C/C(=O)O[C@@H](C)CCC/C=C/[C@@H]2C[C@H](O)C[C@H]21)N(C)C . 34.5 µM

Print HCT-15 colon TGI for Cc1[nH]n(-c2cccc(Cl)c2)c(=O)c1/C=C1\C=c2ccccc2=CC1=O . > 100 µM

Print HCT-15 colon TGI for CCOC(=O)CNC(=O)C(CCC(=O)NO)NC(=O)CCC(N)C(=O)O (centres undefined) (γGlu-Glu(NHOH)-Gly-OEt; configuration not given here) . > 100 µM

Print HCT-15 colon TGI for CCc1ccc(/C=C/C(=O)C2CN(CC)CCC2(O)/C=C/c2ccc(CC)cc2)cc1 (centres undefined) . 8.27 µM

Print HCT-15 colon TGI for CNC(C)Cc1ccccc1OC (centres undefined) . > 100 µM

Print HCT-15 colon TGI for CCC(C)[C@@H]1NC(=O)[C@@H]2CCCN2C(=O)C(CC(O)CO)OC(=O)CCNC(=O)[C@H](C)N(C)C(=O)[C@H](C(C)C)N(C)C1=O (some centres undefined) (cyclo([Ile(3ξ)][NMeV][NMeA][βAla][X22]P)) . > 100 µM

Print HCT-15 colon TGI for c1ccc2c3nnc(c2c1)SCCCSc1nnc(c2ccccc12)SCCCS3 . > 100 µM

Print HCT-15 colon TGI for COc1cccc(/C=C\c2ccnc3ccccc23)c1 . > 10 µM
